Source of measurements: patent US10934274B2

Reported Kd, Met (Homo sapiens).

Worked cases, answers included:
The observed Kd for COc1cc2nccc(Oc3ccc(NC(=O)c4nn(-c5ccc(F)c(C(C)=O)c5)cc4OCC4CC4)nc3)c2cc1OC [Compound 274] when tested with Met (Homo sapiens) stands at < 100 nM

The observed Kd for COc1cc2c(Oc3ccc(NC(=O)c4nn(-c5cnc(N)cn5)cc4OCC(F)(F)F)nc3)ccnc2cc1OC(C)C [Compound 253] when tested with Met (Homo sapiens) stands at < 100 nM

The observed Kd for CCOc1cn(-c2ccc(F)cc2C)nc1C(=O)Nc1ccc(Oc2ccnc3cc(OC)c(OC)cc23)cc1CO [Compound 119] when tested with Met (Homo sapiens) stands at 100 to 1000 nM

For the next question, use this compound.
The observed Kd for CCOc1cn(-c2cnccc2C(C)(C)O)nc1C(=O)Nc1ccc(Oc2ccnc3cc(OC)c(OC)cc23)cc1F [Compound 197] when tested with Met (Homo sapiens) stands at < 100 nM
